molecular target: Dickkopf-related protein 1 (Homo sapiens); experiment: DKK1 binders on small-molecule microarrays, primary screen, biochemical, small-molecule microarray, 635 nm fluorescence scan (AID 1106); settings: DKK1 binding, higher = more signal;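 note: score merges emission near 667 nm with signal to noise over three replicate slides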

{"Compound": "COCCCNC(=O)[C@@]1(CCC(=O)OC(C)(C)C)N=C(c2ccc(OCCCO)cc2)O[C@H]1c1ccccc1CN=[N+]=[N-]", "composite z-score": 0.119}
{"Compound": "O=C1C2C=CC(C(O)c3cccs3)N(Nc3ccccc3F)C2C(=O)N1c1ccccc1 (centres undefined)", "composite z-score": -0.0382}
{"Compound": "COC(=O)[C@@]1(Cc2ccc(OC)cc2)[C@H]2c3cc(C(=O)N(C)C)n(Cc4c(OC)[nH]cc(C)c4=O)c3C[C@H]2CN1C(=O)c1ccccc1", "composite z-score": -0.41}
{"Compound": "CC(C)(C)OC(=O)CC[C@@]1(C(=O)O)N=C(c2ccc(OCCCO)cc2)O[C@@H]1c1ccccc1N=[N+]=[N-]", "composite z-score": -0.169}
